FYI, the data here is from PubChem BioAssay (Tox21).

assay: p53 small molecule agonists, cell-based qHTS assay (AID 1963582); also: potency is read from the fitted curve at half-maximal effect
condition_parameters: HCT-116 p53RE-bla reporter, beta-lactamase FRET ratio, 16 h; series mostly up to 66 µM
Inconclusive results are not listed. Activity calls are given as the source filed them. Calls follow the shape of the dose curve; as a rule, active = well fitted activation curve with a large enough effect in the signal ratio in the repeat runs (not every such curve was filed as active); inconclusive = weak or mixed curves; inactive = flat fitted curve, though single readings scatter; the % refers to the signal ratio.
Record form. Attribute: Potency. Fill in for each entry.

So what does the record say about Potency for `COC(=O)Nc1nc2ccc(Sc3ccccc3)cc2[nH]1` ?
0.363 µM (active)

And the next one, `CC(C)(C)C(=O)OCOP(=O)(COCCn1cnc2c(N)ncnc21)OCOC(=O)C(C)(C)C` ?
7.93 µM (active)

And the next one, `O=Nc1ccc(Nc2ccccc2)cc1` ?
43.4 µM (active)

And the next one, `COc1cccc2c1C(=O)c1c(O)c3c(c(O)c1C2=O)C[C@@](O)(C(=O)CO)C[C@@H]3O[C@H]1C[C@H](N)[C@H](O)[C@H](C)O1` ?
0.457 µM (active)
